Biological target: BSA (UniProt P02769)
Sequence (P02769 25-607 limits assumed): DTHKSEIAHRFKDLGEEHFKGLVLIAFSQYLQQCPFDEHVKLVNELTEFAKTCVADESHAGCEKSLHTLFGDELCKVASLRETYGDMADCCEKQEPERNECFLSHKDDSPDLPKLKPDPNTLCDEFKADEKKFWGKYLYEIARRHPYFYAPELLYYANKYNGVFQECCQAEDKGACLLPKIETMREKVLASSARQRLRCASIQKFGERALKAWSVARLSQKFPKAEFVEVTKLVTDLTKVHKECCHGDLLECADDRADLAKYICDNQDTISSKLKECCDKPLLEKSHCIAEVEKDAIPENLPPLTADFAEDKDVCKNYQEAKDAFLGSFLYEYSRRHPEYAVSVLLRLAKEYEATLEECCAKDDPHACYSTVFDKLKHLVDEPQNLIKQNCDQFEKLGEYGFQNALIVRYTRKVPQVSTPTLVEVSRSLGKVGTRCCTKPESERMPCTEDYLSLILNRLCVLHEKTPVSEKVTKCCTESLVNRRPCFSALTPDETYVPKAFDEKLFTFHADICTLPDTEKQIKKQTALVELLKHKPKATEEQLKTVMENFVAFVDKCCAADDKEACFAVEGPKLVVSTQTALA
Assay: scFv ELISA

Binder	OD450 / OD450
PcOxP_DB01_E04 (scFv, V domains shown, scFv in periplasmic extract) VH: EVQLLESGGGLVQPGGSLRLSCAASGFTFSDAYMEWVRQAPGKGLEWVAASRNKANDYTTEYADSVKGRFTISRDNSKNTLYLQMNSLRAEDTAVYYCARDYYGSSYWYFDTWGQGTLVTVSS VL: DIQMTQSPSSLSASVGDRVTITCTASESLYSSKHKVHYLAWYQQKPGKAPKLLIYGASNRYDGVPSRFSGSGSGTDFTLTISSLQPEDFATYYCAQFYSYPLTFGGGTKVEIK	0.07
PcOxP_DB04_A04 (scFv, V domains shown, scFv in periplasmic extract) VH: EVQLLESGGGLVQPGGSLRLSCAASGFTFSDFYMEWVRQAPGKGLEWVAASRNKWNDYTTEYADSVKGRFTISRDNSKNTLYLQMNSLRAEDTAVYYCARDYYGSSYWYFDVWGQGTLVTVSS VL: DIVMTQSPDSLAVSLGERATINCTASQSVYSSKNKKHYLAWYQQKPGQPPKLLIYGASNRYIGVPDRFSGSGSGTDFTLTISSLQAEDVAVYYCAQFYRYPLTFGGGTKVEIK	0.11
PcOxP_DB01_G07 (scFv, V domains shown, scFv in periplasmic extract) VH: EVQLLESGGGLVQPGGSLRLSCAASGFTFSDYYMEWVRQAPGKGLEWVAASRNKYNDYTTEYADSVKGRFTISRDNSKNTLYLQMNSLRAEDTAVYYCARDYYGSSYWYFDVWGQGTLVTVSS VL: DIVMTQSPDSLAVSLGERATINCTASESLYGSKHKVHYLAWYQQKPGQPPKLLIYGASNRYIGVPDRFSGSGSGTDFTLTISSLQAEDVAVYYCAQFYSYPLTFGGGTKVEIK	0.07
